Molecular target: ORAI1 (CRAC channel) (Homo sapiens, UniProt Q96D31)
Construct: human ORAI1 (hORAI1) co-transfected with hSTIM1 in HEK293T cells; with STIM1
Sequence (Q96D31 whole entry): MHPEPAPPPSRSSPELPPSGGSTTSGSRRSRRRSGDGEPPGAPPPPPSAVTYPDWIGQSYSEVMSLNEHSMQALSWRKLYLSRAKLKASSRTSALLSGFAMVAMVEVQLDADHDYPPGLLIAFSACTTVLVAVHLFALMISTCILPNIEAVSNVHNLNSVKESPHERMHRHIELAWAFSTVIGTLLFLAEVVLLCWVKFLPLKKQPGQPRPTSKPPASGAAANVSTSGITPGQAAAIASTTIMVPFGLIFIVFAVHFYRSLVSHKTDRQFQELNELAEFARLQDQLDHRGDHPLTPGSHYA
Sequence (Q13586 23-685, further chain): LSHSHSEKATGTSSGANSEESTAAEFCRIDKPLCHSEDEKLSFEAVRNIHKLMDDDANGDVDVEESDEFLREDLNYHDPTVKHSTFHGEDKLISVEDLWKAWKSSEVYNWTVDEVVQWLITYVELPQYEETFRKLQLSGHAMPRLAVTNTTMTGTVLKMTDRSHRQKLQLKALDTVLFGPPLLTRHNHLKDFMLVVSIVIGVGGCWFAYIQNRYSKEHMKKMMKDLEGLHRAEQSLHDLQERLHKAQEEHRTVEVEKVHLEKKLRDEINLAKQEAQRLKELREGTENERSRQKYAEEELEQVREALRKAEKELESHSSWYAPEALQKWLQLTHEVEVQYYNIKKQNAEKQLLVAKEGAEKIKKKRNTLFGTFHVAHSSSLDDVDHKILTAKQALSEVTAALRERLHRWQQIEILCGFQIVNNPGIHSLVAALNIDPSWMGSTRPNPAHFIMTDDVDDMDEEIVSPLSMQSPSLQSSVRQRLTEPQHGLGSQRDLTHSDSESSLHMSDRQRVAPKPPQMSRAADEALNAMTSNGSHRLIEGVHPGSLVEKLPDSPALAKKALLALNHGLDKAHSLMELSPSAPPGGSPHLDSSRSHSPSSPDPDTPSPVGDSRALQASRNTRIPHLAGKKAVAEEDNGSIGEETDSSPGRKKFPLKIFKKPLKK
Assay: whole-cell patch clamp of ICRAC in transfected HEK293T cells
Quantity: IC50

INSERT INTO measurements (smiles_structure, quantity, reported_measurement) VALUES
  ('C=C(C)[C@@H]1CCC2=CC(=O)C[C@@H](C)[C@]2(C)C1', 'IC50', '~12.6 µM');
